Measured max response by item
# Tested on: NIH3T3
# protocol: Cytotoxic Profiling of Annotated Libraries Using Quantitative High-Throughput Screening (AID 1296008); further: on the % scale 0 is the no-effect control and ±100 the full control effect; nearly all actives have a fitted effect of over 60% in size
# experimentalParameters: Five cell lines viability, CellTiter-Glo ATP luminescence, 48-72 h; active compounds read low
Inconclusive results are not listed.
Please respond with the number in % and leave the unit unwritten.

Reference set, count: 5
compound	u	max response
CC(C)C(NC(=O)c1ccc2ccccc2n1)C(=O)NC(CC(=O)O)C(=O)COc1c(F)cccc1F (stereo not given)	%	-0.522
NC(=O)C(CCC(F)(F)F)N(Cc1ccc(-c2ncon2)cc1F)S(=O)(=O)c1ccc(Cl)cc1 (stereo not given)	%	-69
C/C1=C\CC[C@H](C)CCO[C@@H]2O[C@H](CO[C@@H]3OC[C@](O)(COC1=O)[C@H]3O)[C@@H](O)[C@H](O)[C@H]2O	%	-5.92
CC1C(OC(=O)c2ccccc2)C(O)C2C(C(=O)O)=COC(OC3OC(CO)C(O)C(O)C3O)C12 (stereo not given)	%	4.34
COC1CC(O[C@H]2CC[C@@]3(C)C(CCC4C3[C@H](OC(C)=O)[C@@H](OC(=O)/C=C/c3ccccc3)[C@]3(C)C(C(C)=O)CC[C@]43O)C2)OC(C)C1OC1CC(OC)C(OC2CC(OC)C(OC3OC(C)C(OC4OC(CO)C(O)C(O)C4O)C(OC)C3O)C(C)O2)C(C)O1 (stereo not given in full)	%	-9.54

Hi! What's the reported max response for Oc1ccc2nc(CN3CCC(Cc4ccccc4F)CC3)[nH]c2c1 on NIH3T3?
-12

Hi! What's the reported max response for C=C(C)[C@@H]1CC[C@]2(C)CC[C@]3(C)[C@H](CC[C@@H]4[C@@]5(C)CC[C@@H](O)C(C)(C)[C@@H]5CC[C@]43C)[C@@H]12 on NIH3T3?
1.04

Hi! What's the reported max response for CC1(C)CCCC2(C)C(CO)C(CO)=CCC12 (stereo not given) on NIH3T3?
-1.37

Hi! What's the reported max response for CC1(C)CC[C@]2(C(=O)O[C@@H]3O[C@H](CO[C@@H]4O[C@H](CO)[C@@H](O)[C@H](O)[C@H]4O[C@@H]4O[C@H](CO)[C@@H](O)[C@H](O)[C@H]4O)[C@@H](O)[C@H](O[C@@H]4O[C@H](CO)[C@@H](O)[C@H](O)[C@H]4O)[C@H]3O)CC[C@]3(C)C(=CCC4[C@@]5(C)CC[C@@H](O)[C@@](C)(C(=O)O[C@@H]6O[C@H](CO)[C@@H](O)[C@H](O)[C@H]6O)C5CC[C@]43C)[C@@H]2C1 (stereo not given in full) on NIH3T3?
1.8

Hi! What's the reported max response for CC1=C(C(=O)O)/C(=C\CO[C@@H]2O[C@H](CO)[C@@H](O)[C@H](O)[C@H]2O)C(OC(=O)/C=C\c2ccc(O)cc2)C1 (stereo not given in full) on NIH3T3?
-21.6

Hi! What's the reported max response for C=C1C[C@]23C[C@H]1[C@@H](O)C[C@H]2[C@@]12C=C[C@H](O)[C@@](C)(C(=O)O1)[C@H]2[C@@H]3C(=O)O on NIH3T3?
0.227

Hi! What's the reported max response for COc1ccc([C@H]2CNC(=O)C2)cc1OC1CCCC1 on NIH3T3?
-18.3

Hi! What's the reported max response for Fc1ccc2nc(CCC#Cc3ccccn3)cn2c1 on NIH3T3?
-0.863

Hi! What's the reported max response for C[C@@H]1C[C@@H](O)[C@@]23CO[C@@H](O)[C@@H]2CCC[C@@H]3[C@@]12C[C@@H](c1ccoc1)OC2=O on NIH3T3?
4.21

Hi! What's the reported max response for CC1(C)CCC2(C(=O)OC3OC(CO)C(O)C(O)C3O)CCC3(C)C(=CCC4C5(C)CCC(OC6OC(C(=O)O)C(OC7OC(CO)C(O)C(O)C7O)C(OC7OC(CO)C(O)C(O)C7O)C6O)C(C)(C)C5CCC43C)C2C1 (stereo not given) on NIH3T3?
-0.359

Hello, the source for this data is PubChem BioAssay (NCATS), in case you need it.
